target: Nuclear receptor ROR-gamma (Homo sapiens); assay: Inverse agonist activity at human RoRc-LBD expressed in cells assessed as SRC1 to 2 coactivator peptide recruitment; type: functional, cell-based
Sequence (P51449 whole entry, the tested form may be a part): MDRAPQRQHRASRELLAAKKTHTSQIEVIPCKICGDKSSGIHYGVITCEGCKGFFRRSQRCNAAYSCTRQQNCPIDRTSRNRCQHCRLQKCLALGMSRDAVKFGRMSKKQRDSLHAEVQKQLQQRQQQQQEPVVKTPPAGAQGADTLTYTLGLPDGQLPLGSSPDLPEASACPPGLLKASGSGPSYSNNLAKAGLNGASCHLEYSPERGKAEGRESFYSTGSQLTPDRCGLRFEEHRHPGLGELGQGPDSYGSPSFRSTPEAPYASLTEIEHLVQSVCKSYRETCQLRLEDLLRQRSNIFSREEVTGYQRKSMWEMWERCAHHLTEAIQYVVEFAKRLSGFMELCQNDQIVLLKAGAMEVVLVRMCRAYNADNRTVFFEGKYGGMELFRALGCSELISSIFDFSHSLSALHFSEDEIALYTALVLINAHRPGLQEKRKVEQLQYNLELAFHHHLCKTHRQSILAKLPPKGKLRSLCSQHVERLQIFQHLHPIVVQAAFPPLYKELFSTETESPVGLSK
QUANTITY: EC50

- SMILES_RECORD: "Cc1noc(C)c1COc1ccc(S(=O)(=O)N(CC(C)C)c2ccc(Cl)cc2)cc1"
  QUANTITY: "EC50"
  REPORTED_RESULT: "< 16 nM"

====

target: UniProt:P51449; test: Inverse agonist activity at human RoRc-LBD expressed in cells assessed as SRC1 to 2 coactivator peptide recruitment; type: functional, cell-based
pIC50: −log10 of the molar value.
Catalogue of pIC50 readings, one per entry.

- COMPOUND: "Cc1ccc(C(NC(=O)Cc2ccc3oc(C(O)c4c(C)noc4C)cc3c2)c2ccccc2)c(C)c1 (centres undefined)"
  QUALIFIER_OPERATOR: "="
  pIC50: 7.48
- COMPOUND: "N#Cc1cccc(S(=O)(=O)N2C[C@H](CO)Oc3ccc(NC(=O)c4c(F)cccc4Cl)cc32)c1"
  QUALIFIER_OPERATOR: ">"
  pIC50: 4.82
- COMPOUND: "Cc1ccc([C@@H](NC(=O)Cc2ccc3oc(C(c4ccncc4)N4CC(N)C4)cc3c2)c2ccccc2)c(C)c1 (some centres undefined)"
  QUALIFIER_OPERATOR: "="
  pIC50: 9.00
- COMPOUND: "O=C(Nc1ccc2cnn(S(=O)(=O)c3cccc(C(F)(F)F)c3)c2c1)c1c(F)cccc1C(F)(F)F"
  QUALIFIER_OPERATOR: ">"
  pIC50: 4.82

====

target: Nuclear receptor ROR-gamma (Homo sapiens); assay: Inverse agonist activity at human RoRc-LBD fusion protein with GST expressed in […] cells assessed as SRC1 coactivator peptide recruitment; type: functional, cell-based

- MOLECULE: "CN1c2cc3c(cc2N=C(c2ccc(C(=O)O)cc2)c2ccc4ccccc4c21)C(C)(C)CCC3(C)C"
  QUALIFIER_OPERATOR: "="
  EC50 / nM: 4000
- MOLECULE: "CCS(=O)(=O)c1ccc(CC(=O)Nc2nc(-c3cccc(Cl)c3)c(C(=O)c3ccccc3Cl)s2)cc1"
  QUALIFIER_OPERATOR: "="
  EC50 / nM: 8
- MOLECULE: "Cc1c(S(N)(=O)=O)cc(-c2cn(S(=O)(=O)N3CCCCC3)c3ccccc23)n1CC1CCCCC1"
  QUALIFIER_OPERATOR: "<"
  EC50 / nM: 500
- MOLECULE: "CCS(=O)(=O)c1ccc(CC(=O)Nc2cc(-c3cccc(Cl)c3)c(C(=O)c3ccccc3Cl)s2)cc1"
  QUALIFIER_OPERATOR: "="
  EC50 / nM: 6
- MOLECULE: "O=C(O)c1ccc(-c2nn(C(=O)c3c(Cl)cccc3C(F)(F)F)c3cc(C(=O)NCCO)ccc23)cc1"
  QUALIFIER_OPERATOR: "<"
  EC50 / nM: 50
- MOLECULE: "CCS(=O)(=O)c1ccc(CC(=O)Nc2nc(-c3cc(Cl)ccc3Cl)cs2)cc1"
  QUALIFIER_OPERATOR: "="
  EC50 / nM: 1000
- MOLECULE: "CC(C)c1ccc(N(C(C)C(C)C)S(=O)(=O)c2ccc(OCC3CCOCC3)cc2)nc1 (centres undefined)"
  QUALIFIER_OPERATOR: "<"
  EC50 / nM: 32
- MOLECULE: "CCc1ccc(N(CC(C)C)S(=O)(=O)c2ccc(C(O)CN3CCOCC3)c(CO)c2)cc1 (centres undefined)"
  QUALIFIER_OPERATOR: "="
  EC50 / nM: 32
- MOLECULE: "CO[C@@H]1Cc2ccccc2CN(S(=O)(=O)c2cccc3cccnc23)[C@@H]1Cc1ccccc1"
  QUALIFIER_OPERATOR: "<"
  EC50 / nM: 500
